Sourced from patent US6841661B2

Recorded Mean by entry
- System: CL 4931, CL 5053, CL 5242 and CL 4877
- Type: cell-based, E. faecium, E. faecalis
- Design: unit not given here
- experimental.context: mean of CL4931, CL5053, CL5242, CL4877; unit not given
reported.endpoint: Mean

compound: CNC(CC(C)C)C(=O)NC1C(=O)NC(CC(N)=O)C(=O)NC2C(=O)NC3C(=O)NC(C(=O)NC(C(=O)O)c4cc(O)cc(O)c4-c4cc3ccc4O)C(O)c3ccc(c(Cl)c3)Oc3cc2cc(c3OC2OC(CNC3CCCC3)C(O)C(O)C2OC2CC(C)(NCc3ccc(OCc4ccc(Cl)c(Cl)c4)cc3)C(O)C(C)O2)Oc2ccc(cc2Cl)C1O (stereo not drawn) [Compound 144]
data.value: 4.0
//
compound: CNC(CC(C)C)C(=O)NC1C(=O)NC(CC(N)=O)C(=O)NC2C(=O)NC3C(=O)NC(C(=O)NC(C(=O)O)c4cc(O)cc(O)c4-c4cc3ccc4O)C(O)c3ccc(c(Cl)c3)Oc3cc2cc(c3OC2OC(CNCc3ccccc3N)C(O)C(O)C2OC2CC(C)(NCc3ccc(OCc4ccc(Cl)c(Cl)c4)cc3)C(O)C(C)O2)Oc2ccc(cc2Cl)C1O (stereo not drawn) [Compound 139]
data.value: 3.6
//
compound: CNC(CC(C)C)C(=O)NC1C(=O)NC(CC(N)=O)C(=O)NC2C(=O)NC3C(=O)NC(C(=O)NC(C(=O)O)c4cc(O)cc(O)c4-c4cc3ccc4O)C(O)c3ccc(c(Cl)c3)Oc3cc2cc(c3OC2OC(CNCc3ccc(N)cc3)C(O)C(O)C2OC2CC(C)(NCc3ccc(OCc4ccc(Cl)c(Cl)c4)cc3)C(O)C(C)O2)Oc2ccc(cc2Cl)C1O (stereo not drawn) [Compound 133]
data.value: 1.1

* * *

- Test system: E. faecium CL 4931 (VanA)
- assay.overview: microbe, parasite or virus in culture
- Assay type: cell-based
- Set-up: unit not given here
- experimental.context: Tables 7 and 8; unit not given

molecule: CNC(CC(C)C)C(=O)NC1C(=O)NC(CC(N)=O)C(=O)NC2C(=O)NC3C(=O)NC(C(=O)NC(C(=O)O)c4cc(O)cc(O)c4-c4cc3ccc4O)C(O)c3ccc(c(Cl)c3)Oc3cc2cc(c3OC2OC(CNCc3ccccc3N)C(O)C(O)C2OC2CC(C)(NCc3ccc(OCc4ccc(Cl)c(Cl)c4)cc3)C(O)C(C)O2)Oc2ccc(cc2Cl)C1O (stereo not drawn) [Compound 139]
system.tested: E. faecium CL 4931 (VanA)
CL4931 (in vitro testing): 8

molecule: CNC(CC(C)C)C(=O)NC1C(=O)NC(CC(N)=O)C(=O)NC2C(=O)NC3C(=O)NC(C(=O)NC(C(=O)O)c4cc(O)cc(O)c4-c4cc3ccc4O)C(O)c3ccc(c(Cl)c3)Oc3cc2cc(c3OC2OC(CNCCCN3CCCC3)C(O)C(O)C2OC2CC(C)(NCc3ccc(OCc4ccc(Cl)c(Cl)c4)cc3)C(O)C(C)O2)Oc2ccc(cc2Cl)C1O (stereo not drawn) [Compound 160]
system.tested: E. faecium CL 4931 (VanA)
CL4931 (in vitro testing): 16

molecule: CNC(CC(C)C)C(=O)NC1C(=O)NC(CC(N)=O)C(=O)NC2C(=O)NC3C(=O)NC(C(=O)NC(C(=O)O)c4cc(O)cc(O)c4-c4cc3ccc4O)C(O)c3ccc(c(Cl)c3)Oc3cc2cc(c3OC2OC(CNCCC#N)C(O)C(O)C2OC2CC(C)(NCc3ccc(OCc4ccc(Cl)c(Cl)c4)cc3)C(O)C(C)O2)Oc2ccc(cc2Cl)C1O (stereo not drawn) [Compound 157]
system.tested: E. faecium CL 4931 (VanA)
CL4931 (in vitro testing): 16

* * *

- System: CL 4931, CL 5053, CL 5242 and CL 4877
- Type: cell-based, E. faecium, E. faecalis
- Design: unit not given here
- experimental.context: mean of CL4931, CL5053, CL5242, CL4877; unit not given
reported.endpoint: Mean

compound: CNC(CC(C)C)C(=O)NC1C(=O)NC(CC(N)=O)C(=O)NC2C(=O)NC3C(=O)NC(C(=O)NC(C(=O)O)c4cc(O)cc(O)c4-c4cc3ccc4O)C(O)c3ccc(c(Cl)c3)Oc3cc2cc(c3OC2OC(CN3CCNCC3)C(O)C(O)C2OC2CC(C)(NCc3ccc(OCc4ccc(Cl)c(Cl)c4)cc3)C(O)C(C)O2)Oc2ccc(cc2Cl)C1O (stereo not drawn)
system.tested: CL 4931, CL 5053, CL 5242 and CL 4877
reported.endpoint: Mean
data.value: 15.0
--
compound: CNC(CC(C)C)C(=O)NC1C(=O)NC(CC(N)=O)C(=O)NC2C(=O)NC3C(=O)NC(C(=O)NC(C(=O)O)c4cc(O)cc(O)c4-c4cc3ccc4O)C(O)c3ccc(c(Cl)c3)Oc3cc2cc(c3OC2OC(CN)C(O)C(O)C2OC2CC(C)(NCc3ccc(OCc4cccc(Cl)c4)cc3)C(O)C(C)O2)Oc2ccc(cc2Cl)C1O (stereo not drawn)
system.tested: CL 4931, CL 5053, CL 5242 and CL 4877
reported.endpoint: Mean
data.value: 12.5
--
compound: CNC(CC(C)C)C(=O)NC1C(=O)NC(CC(N)=O)C(=O)NC2C(=O)NC3C(=O)NC(C(=O)NC(C(=O)O)c4cc(O)cc(O)c4-c4cc3ccc4O)C(O)c3ccc(c(Cl)c3)Oc3cc2cc(c3OC2OC(CNCc3ccccc3Cl)C(O)C(O)C2OC2CC(C)(NCc3ccc(OCc4ccc(Cl)c(Cl)c4)cc3)C(O)C(C)O2)Oc2ccc(cc2Cl)C1O (stereo not drawn)
system.tested: CL 4931, CL 5053, CL 5242 and CL 4877
reported.endpoint: Mean
data.value: 7.0
--
compound: CNC(CC(C)C)C(=O)NC1C(=O)NC(CC(N)=O)C(=O)NC2C(=O)NC3C(=O)NC(C(=O)NC(C(=O)O)c4cc(O)cc(O)c4-c4cc3ccc4O)C(O)c3ccc(c(Cl)c3)Oc3cc2cc(c3OC2OC(CN)C(O)C(O)C2OC2CC(C)(NCC(=O)Oc3ccc(-c4ccc(Cl)c(Cl)c4)cc3)C(O)C(C)O2)Oc2ccc(cc2Cl)C1O (stereo not drawn)
system.tested: CL 4931, CL 5053, CL 5242 and CL 4877
reported.endpoint: Mean
data.value: 32
--
compound: CNCC1OC(Oc2c3cc4cc2Oc2ccc(cc2Cl)C(O)C2NC(=O)C(NC(=O)C4NC(=O)C(CC(N)=O)NC(=O)C(NC(=O)C(CC(C)C)NC)C(O)c4ccc(c(Cl)c4)O3)c3ccc(O)c(c3)-c3c(O)cc(O)cc3C(C(=O)O)NC2=O)C(OC2CC(C)(NCc3ccc(OCc4ccc(Cl)c(Cl)c4)cc3)C(O)C(C)O2)C(O)C1O (stereo not drawn)
system.tested: CL 4931, CL 5053, CL 5242 and CL 4877
reported.endpoint: Mean
data.value: 4.5
--
compound: CNC(CC(C)C)C(=O)NC1C(=O)NC(CC(N)=O)C(=O)NC2C(=O)NC3C(=O)NC(C(=O)NC(C(=O)O)c4cc(O)cc(O)c4-c4cc3ccc4O)C(O)c3ccc(c(Cl)c3)Oc3cc2cc(c3OC2OC(CNCCCN3CCCC3)C(O)C(O)C2OC2CC(C)(NCc3ccc(OCc4ccc(Cl)c(Cl)c4)cc3)C(O)C(C)O2)Oc2ccc(cc2Cl)C1O (stereo not drawn)
system.tested: CL 4931, CL 5053, CL 5242 and CL 4877
reported.endpoint: Mean
data.value: 13.0
--
compound: CNC(CC(C)C)C(=O)NC1C(=O)NC(CC(N)=O)C(=O)NC2C(=O)NC3C(=O)NC(C(=O)NC(C(=O)O)c4cc(O)cc(O)c4-c4cc3ccc4O)C(O)c3ccc(c(Cl)c3)Oc3cc2cc(c3OC2OC(CNCc3ccc(OC)cc3)C(O)C(O)C2OC2CC(C)(NCc3ccc(OCc4ccc(Cl)c(Cl)c4)cc3)C(O)C(C)O2)Oc2ccc(cc2Cl)C1O (stereo not drawn)
system.tested: CL 4931, CL 5053, CL 5242 and CL 4877
reported.endpoint: Mean
data.value: 3.4
--
compound: CNC(CC(C)C)C(=O)NC1C(=O)NC(CC(N)=O)C(=O)NC2C(=O)NC3C(=O)NC(C(=O)NC(C(=O)O)c4cc(O)cc(O)c4-c4cc3ccc4O)C(O)c3ccc(c(Cl)c3)Oc3cc2cc(c3OC2OC(CN)C(O)C(O)C2OC2CC(C)(NCc3ccc(OCc4ccc(F)cc4Cl)cc3)C(O)C(C)O2)Oc2ccc(cc2Cl)C1O (stereo not drawn)
system.tested: CL 4931, CL 5053, CL 5242 and CL 4877
reported.endpoint: Mean
data.value: 21
--
compound: CNC(CC(C)C)C(=O)NC1C(=O)NC(CC(N)=O)C(=O)NC2C(=O)NC3C(=O)NC(C(=O)NC(C(=O)O)c4cc(O)cc(O)c4-c4cc3ccc4O)C(O)c3ccc(c(Cl)c3)Oc3cc2cc(c3OC2OC(CN)C(O)C(O)C2OC2CC(C)(NCc3ccc(OCc4c(Cl)cccc4Cl)cc3)C(O)C(C)O2)Oc2ccc(cc2Cl)C1O (stereo not drawn)
system.tested: CL 4931, CL 5053, CL 5242 and CL 4877
reported.endpoint: Mean
data.value: 13
--
compound: CNC(CC(C)C)C(=O)NC1C(=O)NC(CC(N)=O)C(=O)NC2C(=O)NC3C(=O)NC(C(=O)NC(C(=O)O)c4cc(O)cc(O)c4-c4cc3ccc4O)C(O)c3ccc(c(Cl)c3)Oc3cc2cc(c3OC2OC(CNCc3ccc(Cl)c(Cl)c3)C(O)C(O)C2OC2CC(C)(NCc3ccc(OCc4ccc(Cl)c(Cl)c4)cc3)C(O)C(C)O2)Oc2ccc(cc2Cl)C1O (stereo not drawn)
system.tested: CL 4931, CL 5053, CL 5242 and CL 4877
reported.endpoint: Mean
data.value: 10.0
--
compound: CNC(CC(C)C)C(=O)NC1C(=O)NC(CC(N)=O)C(=O)NC2C(=O)NC3C(=O)NC(C(=O)NC(C(=O)O)c4cc(O)cc(O)c4-c4cc3ccc4O)C(O)c3ccc(c(Cl)c3)Oc3cc2cc(c3OC2OC(CN)C(O)C(O)C2OC2CC(C)(NCc3ccc(C(=O)Oc4ccc(Cl)cc4)cc3)C(O)C(C)O2)Oc2ccc(cc2Cl)C1O (stereo not drawn)
system.tested: CL 4931, CL 5053, CL 5242 and CL 4877
reported.endpoint: Mean
data.value: 17
--
compound: C=CCNCC1OC(Oc2c3cc4cc2Oc2ccc(cc2Cl)C(O)C2NC(=O)C(NC(=O)C4NC(=O)C(CC(N)=O)NC(=O)C(NC(=O)C(CC(C)C)NC)C(O)c4ccc(c(Cl)c4)O3)c3ccc(O)c(c3)-c3c(O)cc(O)cc3C(C(=O)O)NC2=O)C(OC2CC(C)(NCc3ccc(OCc4ccc(Cl)c(Cl)c4)cc3)C(O)C(C)O2)C(O)C1O (stereo not drawn)
system.tested: CL 4931, CL 5053, CL 5242 and CL 4877
reported.endpoint: Mean
data.value: 5.5
